Assay: Stability evaluation in aqueous buffer
Type: physicochemical
Conditions: aqueous buffer, pH 1, pH 1 (0.1 M HCl), 37° C., about 50 μg/mL, about 15% v/v acetonitrile; read-out: Stability (t1/2, h) at 37° C. pH 1 (converted)
reported_metric: half-life (h)

Quick one: half-life of Cc1c(-c2c(C(C)C)c3cc(C4CCN(CC(N)=O)CC4)ccc3n2C(=O)CN(C)C(=O)OCOP(=O)(O)O)cn2ncnc2c1C ?
157

What do you have for Cc1c(-c2c(C(C)C)c3cc(C4CCN(CC(N)=O)CC4)ccc3n2P(=O)(O)O)cn2ncnc2c1C ?
6.4

Repeat for the following compound: Cc1c(-c2c(C(C)C)c3cc(C4CCN(CC(N)=O)CC4)ccc3n2C(=O)OC[C@@H]2CCCCN2C(=O)OCOP(=O)(O)O)cn2ncnc2c1C
248

(a) Cc1c(-c2c(C(C)C)c3cc(C4CCN(CC(N)=O)CC4)ccc3n2CO)cn2ncnc2c1C
(b) Cc1c(-c2c(C(C)C)c3cc(C4CCN(CC(N)=O)CC4)ccc3n2C(=O)CCCOP(=O)(O)O)cn2ncnc2c1C
Could you tell me which of these two has the smaller half-life figure? First: a Second: b // caller expects the label of the chosen entry
a
(a: 179 h, b: 347 h)

(A) Cc1c(-c2c(C(C)C)c3cc(C4CCN(CC(N)=O)CC4)ccc3n2C(=O)OC[C@@H]2CCCN2C(=O)OCOP(=O)(O)O)cn2ncnc2c1C
(B) CNCC(=O)OCc1cccnc1N(C)C(=O)OC[n+]1cnn2cc(-c3[nH]c4ccc(C5CCN(CC(N)=O)CC5)cc4c3C(C)C)c(C)c(C)c21
// which entry reports the smaller half-life, A or B ? Answer = label.
A

====

Test: Solubility evaluation in aqueous buffer
Type: physicochemical
Details: aqueous buffer, 25 °C, pH 1, simulated gastric fluid, thermodynamic from solid, aqueous buffer pH 1, 25° C., about 24 hours equilibration; read-out: Solubility (mg/mL) at 25° C. pH 1
Description: The solid powder of an individual prodrug was equilibrated in aqueous buffers of pH 1, 4 and 6.5 at 25° C. for about 24 hours. After equilibration, the excess solid was separated by filtration using 0.45 μm membrane filter and the filtrate was collected in suitable glass vial. The filtrate was diluted appropriately using respective buffers/diluent and analyzed by a reversed phase LC method with UV detection.
Structures can show the parent of a compound that is named as a salt.
Item-by-item account of solubility

Some solved cases for reference:
Record request: solubility value, item Cc1c(-c2[nH]c3ccc(C4CC[N+](COP(=O)(O)O)(CC(N)=O)CC4)cc3c2C(C)C)cn2ncnc2c1C (single isomer, unassigned) [Example 9, trifluoroacetate]
> 1.14 mg/mL

// same read-out, input: Cc1c(-c2[nH]c3ccc(C4CC[N+](COC(=O)N(C)CCOP(=O)(O)O)(CC(N)=O)CC4)cc3c2C(C)C)cn2ncnc2c1C (single isomer, unassigned) [Example 20, trifluoroacetate]
> 1.16 mg/mL

Also check Cc1c(-c2c(C(C)C)c3cc(C4CCN(CC(N)=O)CC4)ccc3n2C(=O)OC(C)OC(=O)C2(N)CC2)cn2ncnc2c1C (single isomer, unassigned) [Example 6, ditrifluoroacetate]
> 1.32 mg/mL

---
Entry Cc1c(-c2c(C(C)C)c3cc(C4CCN(CC(N)=O)CC4)ccc3n2SC[C@H](N)C(=O)O)cn2ncnc2c1C [Example 11] : reported solubility = ?
> 1.03 mg/mL

====

Experiment: Solubility evaluation in aqueous buffer
Type: physicochemical
Details: aqueous buffer, 25 °C, pH 1, simulated gastric fluid, thermodynamic from solid, aqueous buffer pH 1, 25° C., about 24 hours equilibration; read-out: Solubility (mg/mL) at 25° C. pH 1
Where a name gives a salt, the structure may show the parent alone.
In this section we review reported solubility values for a set of molecules.

Fill in the blank: the reported solubility of Cc1c(-c2c(C(C)C)c3cc(C4CCN(CC(N)=O)CC4)ccc3n2C(=O)OCOC(=O)C2(N)CC2)cn2ncnc2c1C [Example 15, trifluoroacetate] is ____.
> 0.94 mg/mL

Try this molecule next: CCOC(=O)n1c(-c2cn3ncnc3c(C)c2C)c(C(C)C)c2cc(C3CCN(CC(N)=O)CC3)ccc21
> 1.39 mg/mL

How about Cc1c(-c2c(C(C)C)c3cc(C4CCN(CC(N)=O)CC4)ccc3n2C(=O)OC[C@@H]2CCCCN2C(=O)OCOP(=O)(O)O)cn2ncnc2c1C ?
> 1.17 mg/mL

And the next one, Cc1c(-c2[nH]c3ccc(C4CCN(CC(N)=O)CC4)cc3c2C(C)C)cn2nc[n+](COP(=O)(O)O)c2c1C (single isomer, unassigned) [Example 8, trifluoroacetate] ?
> 0.86 mg/mL

Check Cc1c(-c2[nH]c3ccc(C4CCN(CC(N)=O)CC4)cc3c2C(C)C)cn2ncnc2c1C [Compound A, reference compound] too.
1.56 mg/mL

Others:
What value of solubility has been reported for the following molecule? Cc1c(-c2c(C(C)C)c3cc(C4CCN(CC(N)=O)CC4)ccc3n2C(=O)OC[C@@H]2CCCN2C(=O)OCOP(=O)(O)O)cn2ncnc2c1C
> 1.64 mg/mL

====

Test: Solubility evaluation in aqueous buffer
Assay type: physicochemical
Details: aqueous buffer, 25 °C, pH 6.5, aqueous buffer, thermodynamic from solid, aqueous buffer pH 6.5, 25° C., about 24 hours equilibration; read-out: Solubility (mg/mL) at 25° C. pH 6.5
Counter-ions that a name gives are not always drawn.
reported_metric: solubility (mg/mL)

Here's what some known entries look like.
Fill in: solubility of Cc1c(-c2[nH]c3ccc(C4CCN(CC(N)=O)CC4)cc3c2C(C)C)cn2nc[n+](COC(=O)N(C)CCOP(=O)(O)O)c2c1C (single isomer, unassigned) [Example 21, trifluoroacetate] is ___
0.55

# iterate: Cc1c(-c2c(C(C)C)c3cc(C4CCN(CC(N)=O)CC4)ccc3n2C(=O)OC[C@@H]2CCCN2C(=O)OCOP(=O)(O)O)cn2ncnc2c1C
0.66

Try this compound next: Cc1c(-c2c(C(C)C)c3cc(C4CCN(CC(N)=O)CC4)ccc3n2C(=O)CCCOP(=O)(O)O)cn2ncnc2c1C
0.12

Same read-out for CNCC(=O)n1c(-c2cn3ncnc3c(C)c2C)c(C(C)C)c2cc(C3CCN(CC(N)=O)CC3)ccc21 [Example 5, ditrifluoroacetate] ?
1.19

Here is the next compound: Cc1c(-c2[nH]c3ccc(C4CCN(CC(N)=O)CC4)cc3c2C(C)C)cn2nc[n+](COP(=O)(O)O)c2c1C (single isomer, unassigned) [Example 8, trifluoroacetate]
0.86

(a) Cc1c(-c2c(C(C)C)c3cc(C4CCN(CC(N)=O)CC4)ccc3n2CO)cn2ncnc2c1C
(b) Cc1c(-c2c(C(C)C)c3cc(C4CCN(CC(N)=O)CC4)ccc3n2C(=O)OCOC(=O)C2(N)CC2)cn2ncnc2c1C [Example 15, trifluoroacetate]
(c) Cc1c(-c2[nH]c3ccc(C4CC[N+](COP(=O)(O)O)(CC(N)=O)CC4)cc3c2C(C)C)cn2ncnc2c1C (single isomer, unassigned) [Example 9, trifluoroacetate]
(d) CCOC(=O)n1c(-c2cn3ncnc3c(C)c2C)c(C(C)C)c2cc(C3CCN(CC(N)=O)CC3)ccc21
(e) Cc1c(-c2c(C(C)C)c3cc(C4CCN(CC(N)=O)CC4)ccc3n2C(=O)OC[C@@H]2CCCCN2C(=O)OCOP(=O)(O)O)cn2ncnc2c1C
# sort list by recorded solubility, greatest to least Hello, could you send the labels back in the order asked? Thank you.
c, b, e, d, a

====

Reported half-life values follow for various molecules
Experiment: Stability evaluation in aqueous buffer
Assay type: physicochemical
Conditions: aqueous buffer, pH 1, pH 1 (0.1 M HCl), 37° C., about 50 μg/mL, about 15% v/v acetonitrile; read-out: Stability (t1/2, h) at 37° C. pH 1 (converted)
Where a name gives a salt, the structure may show the parent alone.

Some molecules with recorded half-life:
# query: half-life of entry Cc1c(-c2c(C(C)C)c3cc(C4CCN(CC(N)=O)CC4)ccc3n2C(=O)OC[C@@H]2CCCCN2)cn2ncnc2c1C [Example 1]
> 500 h

What do you have for CNCC(=O)OCc1cccnc1N(C)C(=O)OC[N+]1(CC(N)=O)CCC(c2ccc3[nH]c(-c4cn5ncnc5c(C)c4C)c(C(C)C)c3c2)CC1 (stereo not shown) [Example 12] ?
> 500 h

Entry to check: CNCC(=O)OCc1cccnc1N(C)C(=O)OC(C)[N+]1(CC(N)=O)CCC(c2ccc3[nH]c(-c4cn5ncnc5c(C)c4C)c(C(C)C)c3c2)CC1 (stereo not shown) [Example 14]
179 h

Here is another molecule to look at.
So what does the record say about half-life for Cc1c(-c2[nH]c3ccc(C4CCN(CC(N)=O)CC4)cc3c2C(C)C)cn2nc[n+](COC(=O)N(C)CCOP(=O)(O)O)c2c1C (single isomer, unassigned) [Example 21, trifluoroacetate] ?
> 500 h
